target-entity: DNA-PK (Homo sapiens (Human), UniProt P78527)
measurement-description: DNA-PK Enzyme-Linked Immunosorbent Assay (phosphorylation of GST-p53 (1-101) peptide)
Format: biochemical
condition-details: ELISA, ATP 20 μM
Readings of IC50 for the listed compounds

{"compound": "CN1C(=O)C2(CCC2)c2c1cnc1ccc(-c3cnc(OCCCN4CCCCC4)c(NS(=O)(=O)c4cccnc4)c3)cc21 [Example 252]", "IC50": "1 to 100 nM"}
{"compound": "CN(C)CCCOc1ncc(-c2ccc3ncc4c(c3c2)C2(CC2)C(=O)N4C)cc1NS(=O)(=O)c1ccccc1 [Example 4]", "IC50": "< 0.5 nM"}
{"compound": "COCCN(CCOC)S(=O)(=O)Nc1cc(-c2ccc3ncc4c(c3c2)C2(CCC2)C(=O)N4C)cnc1OCCCN(C)C [Example 181]", "IC50": "1 to 100 nM"}
{"compound": "CN(C)CCCOc1ncc(-c2ccc3ncc4c(c3c2)C2(CC2)C(=O)N4C)cc1NS(C)(=O)=O [Example 64]", "IC50": "< 0.5 nM"}
{"compound": "CN(C)CCCOc1ncc(-c2ccc3ncc4c(c3c2)C2(CC2)C(=O)N4C)cc1NS(=O)(=O)c1ccc(OC(F)F)cc1 [Example 126]", "IC50": "< 0.5 nM"}

Now look at this one.
[Q] Which IC50 is reported with DNA-PK (Homo sapiens (Human), UniProt P78527) for this entry: CCS(=O)(=O)Nc1cc(-c2ccc3ncc4c(c3c2)C2(CCC2)C(=O)N4C)cnc1N1CC(N(C)C)C1 [Example 318] ?
[A] 0.5 to 1 nM

====

Listed next: entries and their corresponding pIC50.
target-entity: DNA-PK (Homo sapiens (Human))
measurement-description: DNA-PK Enzyme-Linked Immunosorbent Assay (phosphorylation of GST-p53 (1-101) peptide)
Type: biochemical
condition-details: ELISA, ATP 20 μM
pIC50: −log10 of the molar value. Counter-ions that a name gives are not always drawn.

Worked examples, 5 compounds total:
{"compound": "CN1C(=O)C2(CCC2)c2c1cnc1ccc(-c3cnc(N4CCC(N(C)C)CC4)c(NS(C)(=O)=O)c3)cc21", "target-entity": "DNA-PK (Homo sapiens (Human))", "pIC50": "> 9.30"}
{"compound": "CN(C)CCCOc1ncc(-c2ccc3ncc4c(c3c2)C2(CCC2)C(=O)N4C)cc1NS(=O)(=O)N1CCC1", "target-entity": "DNA-PK (Homo sapiens (Human))", "pIC50": "> 9.30"}
{"compound": "COC1CCN(S(=O)(=O)Nc2cc(-c3ccc4ncc5c(c4c3)C3(CCC3)C(=O)N5C)cnc2OCCCN(C)C)CC1", "target-entity": "DNA-PK (Homo sapiens (Human))", "pIC50": "7.00 to 9.00"}
{"compound": "Cc1ncc(-c2ccc3ncc4c(c3c2)C2(CC2)C(=O)N4C)cc1NS(=O)(=O)c1ccccc1", "target-entity": "DNA-PK (Homo sapiens (Human))", "pIC50": "> 9.30"}
{"compound": "CN(C)CCCOc1ncc(-c2ccc3ncc4c(c3c2)C2(CCC2)C(=O)N4C)cc1NS(C)(=O)=O", "target-entity": "DNA-PK (Homo sapiens (Human))", "pIC50": "> 9.30"}

[Q] Please tell me: pIC50 of Cc1cc(S(=O)(=O)Nc2cc(-c3ccc4ncc5c(c4c3)C3(CCC3)C(=O)N5C)cnc2OCCCN(C)C)sn1 [Example 170, hydrochloride] , system DNA-PK (Homo sapiens (Human))?
[A] > 9.30
